Tested on: SN12C
Experiment: NCI tumour cell line growth inhibition, 48 h
The source made the active and inactive calls. No stated cut-off is given here; in the data, active = GI50 up to about 1.1 µM and inactive = higher.

COMPOUND	GI50
O=C1O[C@@H](c2ccccc2)C[C@H]1CN1CCOCC1	> 100 µM (inactive)
CNc1nc(OC)c2c(n1)n(C)c[n+]2C	> 100 µM (inactive)
N[C@H]1CCC[C@@H](O)C1O (some centres undefined)	> 100 µM (inactive)
CC(=O)N(CCc1ccccc1)C(C#N)c1ccc(OCCCCCCCCCCOc2ccc(C(C#N)N(CCc3ccccc3)C(C)=O)cc2)cc1 (centres undefined)	> 100 µM (inactive)
Cc1cc(N(CCC#N)CCC#N)ccc1C(=N/NC(=O)c1cc(Cl)ccc1O)/N=N/c1cccc([N+](=O)[O-])c1	28.3 µM (inactive)
CC(=O)O[C@H]1C(=O)[C@@]2(C)C(C(OC(=O)c3ccccc3)[C@]3(O)CC(OC(=O)C(O)C(NC(=O)c4ccccc4)c4cccc(Cl)c4)C(C)=C1C3(C)C)[C@]1(OC(C)=O)CO[C@@H]1C[C@@H]2O (some centres undefined)	4.17 µM (inactive)
CC1(C)C(=O)N(c2ccccc2)C(=O)N1c1nc2ccccc2[nH]1	> 100 µM (inactive)
COc1ccccc1-c1cc(=O)c2ccccc2n1C1CC1	5.08 µM (inactive)
C[N+]1=C2[B-](C(C)(C)C)=[N+](C(C)(C)C)[B-]2(C(C)(C)C)[N+](C)=C2[B-](C(C)(C)C)=[N+](C(C)(C)C)[B-]21C(C)(C)C (centres undefined)	> 100 µM (inactive)
